Reference source: PubChem BioAssay (NCI)

This listing pairs compounds with measured growth.
Test system: SN12C renal
Test: NCI-60 one-dose screen, 48 h (100 = growth as untreated, 0 = no growth, -100 = all killed)
Conditions: 10 µM unless noted
Procedure: Growth inhibition of the SN12C human tumor cell line is measured as a screen for anti-cancer activity. Cells are grown in 96 well plates and exposed to the test compound for 48 hours. Compounds are tested at a single concentration, which is 10^-5 M for most compounds. The reported endpoint is percent growth (GI% or GIPRCNT), where numbers from 0 - 100% represent growth inhibition, and numbers from -100% - 0 represent cell death. For example, a value of 40 represents 60% growth inhibition. […]
The panel holds about 83,000 compounds, 20% with a hit somewhere; the sample as a whole holds those more often.
# value in %; strip the unit string

Compound: CCN(CC)CCOc1c(C(C)C)cccc1C(C)C
Experimental Result: 105
--
Compound: C[As](=O)(O)c1ccc(C(=O)O)cc1
Experimental Result: 107
--
Compound: COC[CH2][Hg][C]#[C][Hg][CH2]COC
Experimental Result: 96
--
Compound: COc1ccc(C(=O)c2ccc([As]=O)cc2)cc1 (configuration not stated)
Experimental Result: -52.8
--
Compound: C1CNC2CCCC2C1 (configuration not stated)
Experimental Result: 111
--
Compound: Cc1cc(NC(=O)NCCOc2ccc(N3C(N)=NC(N)=NC3(C)C)cc2Cl)ccc1S(=O)(=O)F
Experimental Result: 7.66

Now for the compound whose growth we want.
Under SN12C renal: report growth of CCCCNCCc1ccccn1 . 112

----------
tested on: HL-60(TB) leukemia; experiment: NCI-60 one-dose screen, 48 h (100 = growth as untreated, 0 = no growth, -100 = all killed); conditions: 10 µM unless noted
Compounds without any hit were thinned out: in the full panel of roughly 83,000, 20% have a hit.
Label yes (1) when growth is at or above 60%; anything below gets no (0).

Worked examples follow.
Molecule: CC(C)C[C@H](NC(=O)Cn1ccc(NCc2ccccc2)cc1=O)B(O)O
Label: no (0)

Molecule: O=C(O)c1ccc(-n2cc(/C=N/Nc3ccccc3F)c(-c3ccc(O)cc3)n2)cc1
Label: no (0)

Does growth meet or surpass 60% for O=[N+]([O-])c1ccc(-c2cc3c(Nc4ccc(Cl)c(C(F)(F)F)c4)ncnc3s2)cc1 ? no (0)

Does growth meet or surpass 60% for COc1cc(-c2nn(-c3cccc(NC(=O)CCN4CCN(Cc5ccccc5)CC4)c3)cc2-c2ccncc2)ccc1Cl ? no (0)

Does growth meet or surpass 60% for Nc1ccccc1SC1CC(=O)N(c2ccc(I)cc2)C1=O (configuration not stated) ? yes (1)

Does growth meet or surpass 60% for CCCCCCNC(=O)Oc1ccc(/C(=C(\C)c2ccc(Cl)cc2)c2ccc(OCCCN(C)C)cc2)cc1 ? yes (1)

Does growth meet or surpass 60% for Cc1ccc(N=CNN=C(N)N)cc1 ? yes (1)

Does growth meet or surpass 60% for COc1ccc(C(O)(CCC(C)C)C(CN2CCOCC2)c2ccc(Cl)cc2)cc1 (configuration not stated) ? no (0)

Does growth meet or surpass 60% for CCOC(=O)c1ccc(NCCC(=O)O)cc1 ? yes (1)

Does growth meet or surpass 60% for NC1=CC(=O)C(=O)c2ccccc21 ? no (0)

Does growth meet or surpass 60% for CCCCCCCCCCC[C@@H](C[C@H]1OC(=O)[C@H]1CCCCCC)OC(=O)[C@@H](CC(C)C)NC=O ? no (0)
